Hello, the source for this data is ChEMBL document CHEMBL4689842, in case you need it.

- Test system: HEK-293T
- TEST_PROTOCOL: Multiplex assay against HEK293T
- Type: toxicity, cell-based
- ASSAY_CONDITIONS: human, 48 h, 10 µM, compound concentration 10 uM, replicate 2
Population Apoptotic (%) listing for selected compounds.
MEASURED_ATTRIBUTE: Population Apoptotic (%)

> print(dat)
                                   compound  measured.number
1  Cc1c(P(=S)(c2ccccc2)c2ccccc2)n2ccccc2[n+]1C/C=C/c1ccccc1.[Br-]               95
2  CN(c1cc(C(F)(F)F)nc(OCCC(=O)O)n1)c1cccc2c1CCC2               10
3  CC(/C=C1\SC(=S)N(CCCC(=O)Nc2ccc(C(=O)O)c(O)c2)C1=O)=C\c1ccccc1               12
4  N#CCNC(=O)c1ccc(-c2ccnc(Nc3ccc(N4CCOCC4)cc3)n2)cc1 [MOMELOTINIB]               27

====

- Tested on: Fibroblast
- TEST_PROTOCOL: Multiplex assay against human fibroblast
- Type: toxicity, cell-based
- ASSAY_CONDITIONS: 24 h, 10 µM, compound concentration 10 uM, replicate 1
MEASURED_ATTRIBUTE: Population Normal (%)

> print(dat)
                                    compound     measured.attribute  display.unit  measured.number
 1  CC(C)[C@H](CO)Nc1nc(Nc2cccc(Cl)c2)c2ncn(C(C)C)c2n1 [PURVALANOLA]  Population Normal (%)             %               79
 2  CC[C@@H]1C(=O)N(C)c2cnc(Nc3ccc(C(=O)NC4CCN(C)CC4)cc3OC)nc2N1C1CCCC1 [BI-2536]  Population Normal (%)             %               63
 3  N#CCNC(=O)c1ccc(-c2ccnc(Nc3ccc(N4CCOCC4)cc3)n2)cc1 [MOMELOTINIB]  Population Normal (%)             %               85
 4  CCCCN(CC)c1nc(C)nc2c1c(C)cn2-c1c(C)cc(C)cc1C.Cl  Population Normal (%)             %               73
 5  Cc1ccc(NC(=O)Nc2cc(C(F)(F)F)ccc2F)cc1Nc1ccc2c(c1)NC(=O)/C2=C\c1ccc[nH]1  Population Normal (%)             %               82
 6  Cl.Cn1c2c(c3ccc(Cl)c(Cl)c31)C(C#N)C1(CCNCC1)NC2=O (stereo unspecified)  Population Normal (%)             %               62
 7  CCOC(=O)CCNc1cc(N2CCc3ccccc3CC2)nc(-c2ccccn2)n1  Population Normal (%)             %               84
 8  Cc1c(Nc2ccc(S(=O)(=O)N3CCN(C)CC3)cc2F)nc2ccc(Nc3cnn(C4CC4)c3)cn2c1=O  Population Normal (%)             %               86
 9  CC(Cc1ccc(O)c(O)c1)C(C)Cc1ccc(O)c(O)c1 (stereo unspecified) [NORDIHYDROGUAIARETIC ACID]  Population Normal (%)             %               82
10  C[C@@H](Oc1cc(-n2cnc3ccc(CN4CCN(C)CC4)cc32)sc1C(N)=O)c1ccccc1C(F)(F)F [GSK-461364]  Population Normal (%)             %               56
11  CCCCCNC(=N)N/N=C/c1c[nH]c2ccc(OC)cc12.O=C(O)/C=C\C(=O)O [TEGASEROD MALEATE]  Population Normal (%)             %               81
12  CCCc1cc(C)[nH]c(=O)c1CNC(=O)c1cc(-c2ccc(N3CCN(C(C)C)CC3)nc2)cc2c1cnn2C(C)C  Population Normal (%)             %               74
13  c1ccc(-c2oc3ncnc(NC[C@@H]4CCCO4)c3c2-c2ccccc2)cc1  Population Normal (%)             %               74
14  CC(C)c1cc(Nc2nc(N3CCC[C@H](N)C3)ncc2C(N)=O)cc(C(C)C)n1  Population Normal (%)             %               75
15  Cc1c(P(=S)(c2ccccc2)c2ccccc2)n2ccccc2[n+]1C/C=C/c1ccccc1.[Br-]  Population Normal (%)             %               81
16  NC(=O)c1ccc2nc(-c3ccc(C4(N)CCC4)cc3)c(-c3ccccc3)n2n1 [BAY-1125976]  Population Normal (%)             %               84
17  CCOc1ccn(-c2ccc(F)cc2)c(=O)c1C(=O)Nc1ccc(Oc2ccnc(N)c2Cl)c(F)c1 [BMS-777607]  Population Normal (%)             %               90
18  CN(c1cc(C(F)(F)F)nc(OCCC(=O)O)n1)c1cccc2c1CCC2  Population Normal (%)             %               92
19  C=CC(=O)Nc1cc(-n2c(=O)ccc3cnc4ccc(-c5ccc(NS(C)(=O)=O)cc5)cc4c32)ccc1C  Population Normal (%)             %               90
20  CN1C(=O)[C@@H](NC(=O)c2cc3ccccc3[nH]2)N=C(c2ccccc2)c2ccccc21 [DEVAZEPIDE]  Population Normal (%)             %               87
21  N#Cc1cccc(C(=O)Nc2cc(-c3ccccc3)nn2-c2ccccc2)c1  Population Normal (%)             %               93

====

- Test system: Fibroblast
- TEST_PROTOCOL: Multiplex assay against human fibroblast
- Type: toxicity, cell-based
- ASSAY_CONDITIONS: 12 h, 10 µM, compound concentration 10 uM, replicate 1
MEASURED_ATTRIBUTE: Population Mitochondria Different-Phenotype (%)

> print(dat)
                            molecule.smiles   tested.on  measured.number
1  CC[C@@]1(O)C(=O)OCc2c1cc1n(c2=O)Cc2cc3ccccc3nc2-1  Fibroblast               11
2  NC(=O)c1ccc2nc(-c3ccc(C4(N)CCC4)cc3)c(-c3ccccc3)n2n1  Fibroblast                3
3  CC(C)c1cc(Nc2nc(N3CCC[C@H](N)C3)ncc2C(N)=O)cc(C(C)C)n1  Fibroblast               30
4  CC(C)[C@H](CO)Nc1nc(Nc2cccc(Cl)c2)c2ncn(C(C)C)c2n1  Fibroblast               54
5  C[C@@H](Oc1cc(-n2cnc3ccc(CN4CCN(C)CC4)cc32)sc1C(N)=O)c1ccccc1C(F)(F)F  Fibroblast               47

====

- System: Fibroblast
- TEST_PROTOCOL: Multiplex assay against human fibroblast
- Type: toxicity, cell-based
- ASSAY_CONDITIONS: 24 h, 1 µM, compound concentration 1 uM, replicate 1
MEASURED_ATTRIBUTE: Population Apoptotic (%)

> print(dat)
                            molecule.smiles  measured.number
1  Cc1c(P(=S)(c2ccccc2)c2ccccc2)n2ccccc2[n+]1C/C=C/c1ccccc1.[Br-]               70
2  CN(c1cc(C(F)(F)F)nc(OCCC(=O)O)n1)c1cccc2c1CCC2               54
3  C[C@@H](Oc1cc(-n2cnc3ccc(CN4CCN(C)CC4)cc32)sc1C(N)=O)c1ccccc1C(F)(F)F               70
4  Cc1ccc(NC(=O)Nc2cc(C(F)(F)F)ccc2F)cc1Nc1ccc2c(c1)NC(=O)/C2=C\c1ccc[nH]1               28

====

Total Cell Count listing for selected compounds.
- Test system: HEK-293T
- TEST_PROTOCOL: Multiplex assay against HEK293T
- Assay type: toxicity, cell-based
- ASSAY_CONDITIONS: human, 48 h, 1 µM, compound concentration 1 uM, replicate 1
MEASURED_ATTRIBUTE: Total Cell Count

> print(dat)
                                   compound  tested.on  measured.attribute  measured.number
1  Cl.NC[C@@H]1O[C@H](C23CC4CC(CC(C4)C2)C3)Cc2c1ccc(O)c2O   HEK-293T    Total Cell Count              773
2  N#Cc1cccc(C(=O)Nc2cc(-c3ccccc3)nn2-c2ccccc2)c1   HEK-293T    Total Cell Count              415
3  N#CCNC(=O)c1ccc(-c2ccnc(Nc3ccc(N4CCOCC4)cc3)n2)cc1 [MOMELOTINIB]   HEK-293T    Total Cell Count              535
